assay: Intravenous pharmacokinetics; format: in vivo, BALB/c mice; details: BALB/c, mouse, in vivo; mice, single IV dose 2 mg/kg; read-out: Vss
Measured Quantity: Vd (L/kg)
Only the number, expressed in L/kg, is required.

### Prompt Supply reported Vd belonging to this compound: `O=C(Nc1nc(-c2ccc(F)cc2)cs1)c1ccc([N+](=O)[O-])s1`
### Response 0.4

### Prompt Supply reported Vd belonging to this compound: `O=C(Nc1nc(-c2ccc(F)cc2F)cs1)c1ccc([N+](=O)[O-])s1`
### Response 1.64

* * *

tested on: E. coli clinical isolates; assay: MIC on panel of E. coli clinical isolates; type: cell-based; settings: strain SEC061
I'd appreciate it if you could supply MIC values for the items below.

### Prompt Supply reported MIC belonging to this compound: COc1cc(-c2csc(NC(=O)c3ccc([N+](=O)[O-])s3)n2)ccc1Cl [compound 20]
### Response 4 µg/mL

### Prompt Supply reported MIC belonging to this compound: O=C(Nc1nc(-c2ccc(F)cc2)cs1)c1ccc([N+](=O)[O-])s1 [compound 15]
### Response 2 µg/mL

### Prompt Supply reported MIC belonging to this compound: C[C@@H](O)[C@H]1C(=O)N2C(C(=O)O)=C(S[C@@H]3CN[C@H](C(=O)N(C)C)C3)[C@H](C)[C@H]12 [meropenem, reference compound]
### Response 0.03 µg/mL

### Prompt Supply reported MIC belonging to this compound: O=C(Nc1nc(-c2ccc(F)cc2F)cs1)c1ccc([N+](=O)[O-])s1 [compound 12]
### Response 2 µg/mL

### Prompt Supply reported MIC belonging to this compound: CNC(C)C1CCC(N)C(OC2C(N)CC(N)C(OC3OCC(C)(O)C(NC)C3O)C2O)O1 (stereo not drawn) [gentamicin, reference compound]
### Response > 64 µg/mL

### Prompt Supply reported MIC belonging to this compound: O=C1CN(/N=C/c2ccc([N+](=O)[O-])o2)C(=O)N1 [nitrofurantoin, reference compound]
### Response 40 µg/mL

* * *

test system: E. coli clinical isolates; assay: MIC on panel of E. coli clinical isolates; format: cell-based; conditions: strain SEC006
Binary label based on MIC with cut-off 4 µg/mL: below gives true, not below gives false.

### Prompt Here's an entry: O=C(Nc1nc(-c2ccc(F)cc2)cs1)c1ccc([N+](=O)[O-])s1 [compound 15] . Is its MIC below 4 µg/mL?
### Response true

### Prompt Here's an entry: COc1cc(-c2csc(NC(=O)c3ccc([N+](=O)[O-])s3)n2)ccc1Cl [compound 20] . Is its MIC below 4 µg/mL?
### Response false

### Prompt Here's an entry: O=C1CN(/N=C/c2ccc([N+](=O)[O-])o2)C(=O)N1 [nitrofurantoin, reference compound] . Is its MIC below 4 µg/mL?
### Response false

### Prompt Here's an entry: C[C@@H](O)[C@H]1C(=O)N2C(C(=O)O)=C(S[C@@H]3CN[C@H](C(=O)N(C)C)C3)[C@H](C)[C@H]12 [meropenem, reference compound] . Is its MIC below 4 µg/mL?
### Response true

* * *

system: E. coli clinical isolates; assay: MIC on panel of E. coli clinical isolates; format: cell-based; details: strain SEC052
I'd appreciate it if you could supply MIC values for the items below.
Only the number, expressed in µg/mL, is required.

### Prompt Supply reported MIC belonging to this compound: COc1cc(-c2csc(NC(=O)c3ccc([N+](=O)[O-])s3)n2)ccc1Cl [compound 20]
### Response 1

### Prompt Supply reported MIC belonging to this compound: O=C(Nc1nc(-c2ccc(F)cc2F)cs1)c1ccc([N+](=O)[O-])s1 [compound 12]
### Response 1

### Prompt Supply reported MIC belonging to this compound: C[C@@H](O)[C@H]1C(=O)N2C(C(=O)O)=C(S[C@@H]3CN[C@H](C(=O)N(C)C)C3)[C@H](C)[C@H]12 [meropenem, reference compound]
### Response 1

### Prompt Supply reported MIC belonging to this compound: CNC(C)C1CCC(N)C(OC2C(N)CC(N)C(OC3OCC(C)(O)C(NC)C3O)C2O)O1 (stereo not drawn) [gentamicin, reference compound]
### Response 2

### Prompt Supply reported MIC belonging to this compound: O=C(Nc1nc(-c2ccc(F)cc2)cs1)c1ccc([N+](=O)[O-])s1 [compound 15]
### Response 1

### Prompt Supply reported MIC belonging to this compound: O=C1CN(/N=C/c2ccc([N+](=O)[O-])o2)C(=O)N1 [nitrofurantoin, reference compound]
### Response 160

* * *

I'd appreciate it if you could supply MIC values for the items below.
system: E. coli clinical isolates; assay: MIC on panel of E. coli clinical isolates; type: cell-based; conditions: strain SEC075
Only the number, expressed in µg/mL, is required.

### Prompt Supply reported MIC belonging to this compound: `COc1cc(-c2csc(NC(=O)c3ccc([N+](=O)[O-])s3)n2)ccc1Cl`
### Response 4

### Prompt Supply reported MIC belonging to this compound: O=C1CN(/N=C/c2ccc([N+](=O)[O-])o2)C(=O)N1 [nitrofurantoin, reference compound]
### Response 10

### Prompt Supply reported MIC belonging to this compound: `O=C(Nc1nc(-c2ccc(F)cc2)cs1)c1ccc([N+](=O)[O-])s1`
### Response 1

### Prompt Supply reported MIC belonging to this compound: `O=C(Nc1nc(-c2ccc(F)cc2F)cs1)c1ccc([N+](=O)[O-])s1`
### Response 4

### Prompt Supply reported MIC belonging to this compound: C[C@@H](O)[C@H]1C(=O)N2C(C(=O)O)=C(S[C@@H]3CN[C@H](C(=O)N(C)C)C3)[C@H](C)[C@H]12 [meropenem, reference compound]
### Response 0.13

* * *

I'd appreciate it if you could supply Tefflux50 values for the items below.
target: AcrB efflux pump in E. coli BW25113 (Escherichia coli); construct: endogenous in cells; host or cells: E. coli BW25113 (wild type); experiment: Nile red efflux assay (whole-cell competition); format: cell-based; details: 200µM compound
Sequence (P0AE06 25-397): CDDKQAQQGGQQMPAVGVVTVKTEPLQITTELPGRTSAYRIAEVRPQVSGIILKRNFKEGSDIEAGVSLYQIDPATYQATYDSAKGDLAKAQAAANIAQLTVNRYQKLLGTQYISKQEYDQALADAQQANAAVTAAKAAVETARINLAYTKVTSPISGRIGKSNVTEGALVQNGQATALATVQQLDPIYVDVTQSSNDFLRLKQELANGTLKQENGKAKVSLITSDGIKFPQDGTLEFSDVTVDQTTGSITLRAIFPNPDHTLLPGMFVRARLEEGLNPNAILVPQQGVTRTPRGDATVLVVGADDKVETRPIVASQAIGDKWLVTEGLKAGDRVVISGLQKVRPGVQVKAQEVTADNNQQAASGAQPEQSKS
Sequence (P31224 whole entry): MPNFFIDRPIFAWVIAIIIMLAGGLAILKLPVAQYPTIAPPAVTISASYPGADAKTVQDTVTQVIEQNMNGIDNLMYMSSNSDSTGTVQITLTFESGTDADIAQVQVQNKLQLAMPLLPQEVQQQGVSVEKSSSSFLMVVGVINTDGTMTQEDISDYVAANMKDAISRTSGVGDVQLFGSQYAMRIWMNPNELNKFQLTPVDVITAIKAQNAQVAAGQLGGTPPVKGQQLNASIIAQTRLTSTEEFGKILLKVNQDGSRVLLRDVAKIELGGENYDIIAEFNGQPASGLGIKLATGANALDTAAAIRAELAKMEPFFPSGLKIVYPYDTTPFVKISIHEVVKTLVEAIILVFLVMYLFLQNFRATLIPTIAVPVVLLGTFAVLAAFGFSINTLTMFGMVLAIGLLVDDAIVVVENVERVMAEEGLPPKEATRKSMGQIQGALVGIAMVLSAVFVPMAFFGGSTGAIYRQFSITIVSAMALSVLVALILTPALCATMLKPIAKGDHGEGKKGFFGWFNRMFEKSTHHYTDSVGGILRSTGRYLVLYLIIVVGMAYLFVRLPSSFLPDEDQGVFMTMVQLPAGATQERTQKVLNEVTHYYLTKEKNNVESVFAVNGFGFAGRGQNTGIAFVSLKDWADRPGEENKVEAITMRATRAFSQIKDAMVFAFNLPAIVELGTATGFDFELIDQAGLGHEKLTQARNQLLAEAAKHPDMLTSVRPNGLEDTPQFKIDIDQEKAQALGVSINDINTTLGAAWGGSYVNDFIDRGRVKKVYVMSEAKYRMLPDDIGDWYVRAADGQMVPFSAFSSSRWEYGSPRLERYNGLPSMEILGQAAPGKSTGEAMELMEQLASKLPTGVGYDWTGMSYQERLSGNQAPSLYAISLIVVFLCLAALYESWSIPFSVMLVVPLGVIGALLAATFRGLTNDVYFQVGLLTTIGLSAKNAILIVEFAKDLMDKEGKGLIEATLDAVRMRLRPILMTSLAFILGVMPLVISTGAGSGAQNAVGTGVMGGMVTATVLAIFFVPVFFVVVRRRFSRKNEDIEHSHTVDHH
Sequence (P02930 23-493, further chain): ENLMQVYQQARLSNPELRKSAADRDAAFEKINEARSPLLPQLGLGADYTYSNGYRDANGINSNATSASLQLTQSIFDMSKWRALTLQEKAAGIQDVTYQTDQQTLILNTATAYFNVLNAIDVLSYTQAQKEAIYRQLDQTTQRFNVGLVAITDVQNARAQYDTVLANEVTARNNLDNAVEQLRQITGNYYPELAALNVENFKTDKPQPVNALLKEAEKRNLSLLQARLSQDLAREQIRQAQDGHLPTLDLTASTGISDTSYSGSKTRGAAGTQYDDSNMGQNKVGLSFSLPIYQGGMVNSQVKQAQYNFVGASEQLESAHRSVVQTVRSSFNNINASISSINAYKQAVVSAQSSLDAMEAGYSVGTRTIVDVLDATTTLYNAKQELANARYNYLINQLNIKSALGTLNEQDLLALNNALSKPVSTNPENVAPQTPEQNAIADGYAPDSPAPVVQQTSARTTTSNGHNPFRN
Only the number, expressed in s, is required.

### Prompt Supply reported Tefflux50 belonging to this molecule: `Cc1sc(NC(=O)c2ccc([N+](=O)[O-])s2)nc1-c1ccccc1`
### Response 200

### Prompt Supply reported Tefflux50 belonging to this molecule: `O=C(Nc1nc(-c2ccc(F)cc2)cs1)c1ccc([N+](=O)[O-])s1`
### Response 200

### Prompt Supply reported Tefflux50 belonging to this molecule: `COc1cc(-c2csc(NC(=O)c3ccc([N+](=O)[O-])s3)n2)ccc1Cl`
### Response 200

### Prompt Supply reported Tefflux50 belonging to this molecule: `O=C(Nc1nc(-c2ccc(F)cc2F)cs1)c1ccc([N+](=O)[O-])s1`
### Response 68.34

* * *

system: E. coli clinical isolates; test: MIC on panel of E. coli clinical isolates; type: cell-based; details: Escherichia coli; 75 E.coli clinical isolates; 90% clinical isolates
Measured Quantity: MIC90 (µg/mL)
Only the number, expressed in µg/mL, is required.

### Prompt Supply reported MIC90 belonging to this compound: O=C1CN(/N=C/c2ccc([N+](=O)[O-])o2)C(=O)N1 [nitrofurantoin, reference compound]
### Response 80

### Prompt Supply reported MIC90 belonging to this compound: `O=C(Nc1nc(-c2ccc(F)cc2F)cs1)c1ccc([N+](=O)[O-])s1`
### Response 10

### Prompt Supply reported MIC90 belonging to this compound: `O=C(Nc1nc(-c2ccc(F)cc2)cs1)c1ccc([N+](=O)[O-])s1`
### Response 10

### Prompt Supply reported MIC90 belonging to this compound: C[C@@H](O)[C@H]1C(=O)N2C(C(=O)O)=C(S[C@@H]3CN[C@H](C(=O)N(C)C)C3)[C@H](C)[C@H]12 [meropenem, reference compound]
### Response 8

### Prompt Supply reported MIC90 belonging to this compound: `COc1cc(-c2csc(NC(=O)c3ccc([N+](=O)[O-])s3)n2)ccc1Cl`
### Response 10

* * *

assay: Intravenous pharmacokinetics; format: in vivo, BALB/c mice; settings: BALB/c, mouse, in vivo, iv, 2 mg/kg; used for estimation of oral bioavailability
Measured Quantity: AUC
Please provide the amount together with its unit, number first.

### Prompt Supply reported AUC belonging to this molecule: `O=C(Nc1nc(-c2ccc(F)cc2F)cs1)c1ccc([N+](=O)[O-])s1`
### Response 570 ng·h/mL

### Prompt Supply reported AUC belonging to this molecule: `O=C(Nc1nc(-c2ccc(F)cc2)cs1)c1ccc([N+](=O)[O-])s1`
### Response 910 ng·h/mL

* * *

assay: Oral pharmacokinetics; format: in vivo, BALB/c mice; conditions: BALB/c, mouse, plasma; mice, single oral dose 100 mg/kg
Measured Quantity: Tmax

### Prompt Supply reported Tmax belonging to this compound: `O=C(Nc1nc(-c2ccc(F)cc2)cs1)c1ccc([N+](=O)[O-])s1`
### Response 15 min
